The reported measurements were obtained from patent US20220348590A1.

Biological target: human recombinant COX2 (hCOX2)
Assay: LCMS-based COX2 enzymatic inhibition assay (PGE2 quantification)
Assay type: biochemical
Parameters: COX2 2 minutes pge2/pge2d4 area ratio Avg; other: 2 minutes; readout pge2/pge2d4 area ratio; average; COX2 2 minutes pge2/pge2d4 area ratio Avg; LLE; average LLE; COX2 2 minutes pge2 area (counts) Avg; readout pge2 area (counts); other: 2 min; "ovine COX2 (oCOX2), human recombinant COX2 (hCOX2)"
Settings: 2 minutes; readout pge2 area (counts); average LLE
observed-property: COX2 2 minutes pge2 area (counts) Avg. LLE

[
  {
    "chemical-structure": "COCc1ccc(-c2ccc(S(C)(=O)=O)cc2)nc1NCc1cccs1",
    "study-target": "human recombinant COX2 (hCOX2)",
    "value-measured": 2.661
  },
  {
    "chemical-structure": "COc1ncc(NCc2nccs2)nc1-c1ccc(S(C)(=O)=O)cc1",
    "study-target": "human recombinant COX2 (hCOX2)",
    "value-measured": 4.948
  },
  {
    "chemical-structure": "CS(=O)(=O)c1ccc(-c2cnc3ccn(Cc4cccs4)c3c2)cc1",
    "study-target": "human recombinant COX2 (hCOX2)",
    "value-measured": 2.242
  },
  {
    "chemical-structure": "CS(=O)(=O)c1ccc(-c2cncc(NCc3ccco3)n2)cc1",
    "study-target": "human recombinant COX2 (hCOX2)",
    "value-measured": 5.44
  },
  {
    "chemical-structure": "CS(=O)(=O)c1ccc(-c2cncc(OCc3ccns3)n2)cc1",
    "study-target": "human recombinant COX2 (hCOX2)",
    "value-measured": 5.323
  }
]

---

Target: human recombinant COX2 (hCOX2) (UniProt P35354)
Experiment: LCMS-based COX2 enzymatic inhibition assay (PGE2 quantification)
Type: biochemical
Design: COX2 2 minutes pge2/pge2d4 area ratio Avg; other: 2 minutes; readout pge2/pge2d4 area ratio; average; COX2 2 minutes pge2/pge2d4 area ratio Avg; LLE; average LLE; COX2 2 minutes pge2 area (counts) Avg; readout pge2 area (counts); other: 2 min; "ovine COX2 (oCOX2), human recombinant COX2 (hCOX2)"
Conditions: 2 minutes; readout pge2 area (counts); average LLE
observed-property: COX2 2 minutes pge2 area (counts) Avg. LLE

[
  {
    "compound": "CS(=O)(=O)c1ccc(-c2cccc([S@@+]([O-])Cc3cccs3)n2)cc1 [Compound 266]",
    "value-measured": 2.934
  },
  {
    "compound": "CS(=O)(=O)c1ccc(-c2cncc(OCc3nccs3)c2)cc1 [Compound 289]",
    "value-measured": 2.234
  },
  {
    "compound": "COc1ncc(-c2ccc(S(C)(=O)=O)cc2)nc1NCc1ccccn1 [Compound 260]",
    "value-measured": 4.307
  },
  {
    "compound": "C[C@H](Oc1cccc(-c2ccc(S(C)(=O)=O)cc2)n1)c1cccs1 (single isomer, unassigned) [Compound 46]",
    "value-measured": 3.431
  },
  {
    "compound": "CS(=O)(=O)c1ccc(-c2cc(S(C)(=O)=O)cc(NCc3cccs3)n2)cc1 [Compound 268]",
    "value-measured": 2.624
  },
  {
    "compound": "Cn1nccc1CNc1cccc(-c2ccc(S(C)(=O)=O)cc2)n1 [Compound 197]",
    "value-measured": 4.01
  },
  {
    "compound": "COc1cc(S(C)(=O)=O)ccc1-c1cncc(NCc2cccs2)n1 [Compound 179]",
    "value-measured": 4.322
  },
  {
    "compound": "C[C@H](Nc1cncc(-c2ccc(S(C)(=O)=O)cc2)n1)c1cccs1 [Compound 109]",
    "value-measured": 4.487
  },
  {
    "compound": "CS(=O)(=O)c1ccc(-c2cncc(NCc3cccs3)n2)cn1 [Compound 141]",
    "value-measured": 5.579
  },
  {
    "compound": "C[C@@H](Nc1cccc(-c2ccc(S(C)(=O)=O)cc2)n1)c1ccoc1 (single isomer, unassigned) [Compound 112]",
    "value-measured": 3.525
  },
  {
    "compound": "CS(=O)(=O)c1ccc(-c2nc(NCc3cccs3)cnc2C(F)(F)F)cc1 [Compound 76]",
    "value-measured": 4.291
  },
  {
    "compound": "CS(=O)(=O)c1ccc(-c2cncc(OCc3ccc(Cl)s3)n2)cc1 [Compound 4]",
    "value-measured": 4.615
  },
  {
    "compound": "CN(Cc1cccs1)c1cncc(-c2ccc(S(C)(=O)=O)cc2)n1 [Compound 51]",
    "value-measured": 5.211
  },
  {
    "compound": "COc1ccc(NCc2cccs2)nc1-c1ccc(S(C)(=O)=O)nc1 [Compound 88]",
    "value-measured": 4.67
  },
  {
    "compound": "CC(=O)c1ncc(NCc2cccs2)nc1-c1ccc(S(C)(=O)=O)cc1 [Compound 248]",
    "value-measured": 3.163
  },
  {
    "compound": "CS(=O)(=O)c1ccc(-c2cncc(OCCc3cccs3)n2)cc1 [Compound 312]",
    "value-measured": 2.744
  },
  {
    "compound": "COc1cc(S(C)(=O)=O)ccc1-c1cccc(NCc2cccs2)n1 [Compound 259]",
    "value-measured": 2.088
  },
  {
    "compound": "CS(=O)(=O)c1ccc(-c2ccc3c(n2)N(Cc2cccs2)C(=O)C3)cc1 [Compound 204]",
    "value-measured": 2.252
  },
  {
    "compound": "CS(=O)(=O)c1ccc(-c2cncc(NC[C@H]3CCCS3)n2)cc1 (single isomer, unassigned) [Compound 162]",
    "value-measured": 4.888
  }
]
